B1: TPR 5TU (parent)
chain: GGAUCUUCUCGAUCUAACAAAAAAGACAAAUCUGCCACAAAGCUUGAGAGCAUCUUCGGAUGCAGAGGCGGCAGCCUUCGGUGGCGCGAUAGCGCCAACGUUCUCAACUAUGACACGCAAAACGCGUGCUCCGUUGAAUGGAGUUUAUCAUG

Variants of: B1
Assay: polymerase ribozyme fitness, log enrichment relative to wild type (log ratio); higher = more active; in vitro selection for triplet polymerase activity
Variants at the floor of the assay were thinned out.
Here the recorded polymerase ribozyme fitness (log ratio) is given for each entry.
assayEndpoint: polymerase ribozyme fitness (log ratio)

>>> val("C38U C149U A150U")
-1.23
>>> val("G83C U104G C116U")
-1.3
>>> val("A12C A52G G68U A98U")
-4.19
>>> val("A47U C114U")
-1.72
>>> val("U33G A49C C75G G92A U101G C105A")
-4.15
>>> val("G92C G141C")
-0.623
>>> val("G84A U148G")
-3.25
>>> val("A52G U53A G84A")
-0.8
>>> val("U13C C14G C57A U101G")
-1.23
>>> val("G50C U56A G59C")
-3.03
>>> val("U7G A20C U56G U146G")
-3.82
>>> val("U6C C85G")
-2.95
